- protocol.details: Prodrug conversion assessed as RNase (unknown origin)-mediated drug release by measuring half life in simulated intestinal fluid at 1 mM by UV/Vis detector based HPLC analysis
- Format: ADME
- protocol.conditions: human, simulated gi fluid, 1000 µM
Assignment: determine reported t1/2 for the given molecules.

Endpoint output: t1/2 of COc1cc([C@@H]2Oc3cc([C@H]4Oc5cc(O)cc(O)c5C(=O)[C@@H]4O)ccc3O[C@H]2COP(=O)(O)O[C@H]2[C@@H](O)[C@H](n3cnc4c(N)ncnc43)O[C@@H]2CO)ccc1O . Value?
> 48 h

Now give it for COc1cc(C2Oc3cc([C@H]4Oc5cc(O)cc(O)c5C(=O)[C@@H]4O)ccc3OC2COP(=O)(O)O[C@H]2[C@@H](O)[C@H](n3cnc4c(N)ncnc43)O[C@@H]2CO)ccc1O (stereo partly drawn) too.
> 48 h

Quick one: COc1cc([C@H]2Oc3cc([C@H]4Oc5cc(O)cc(O)c5C(=O)[C@@H]4O)ccc3O[C@@H]2COP(=O)(O)O[C@H]2[C@@H](O)[C@H](n3cnc4c(N)ncnc43)O[C@@H]2CO)ccc1O
> 48 h

###

- protocol.details: Prodrug conversion assessed as RNase (unknown origin) -mediated drug release by measuring half life in imidazole buffer at 1 mM by UV/Vis detector based HPLC analysis
- Format: ADME
- protocol.conditions: human, 1000 µM
I'd be grateful if you could share measured t1/2 for these entries.

Please report the recorded t1/2 for COc1cc([C@H]2Oc3cc([C@H]4Oc5cc(O)cc(O)c5C(=O)[C@@H]4O)ccc3O[C@@H]2COP(=O)(O)O[C@H]2[C@@H](O)[C@H](n3cnc4c(N)ncnc43)O[C@@H]2CO)ccc1O .
> 48 h

Follow-up item: COc1cc(C2Oc3cc([C@H]4Oc5cc(O)cc(O)c5C(=O)[C@@H]4O)ccc3OC2COP(=O)(O)O[C@H]2[C@@H](O)[C@H](n3cnc4c(N)ncnc43)O[C@@H]2CO)ccc1O (stereo partly drawn)
> 48 h

What about this compound? COc1cc([C@@H]2Oc3cc([C@H]4Oc5cc(O)cc(O)c5C(=O)[C@@H]4O)ccc3O[C@H]2COP(=O)(O)O[C@H]2[C@@H](O)[C@H](n3cnc4c(N)ncnc43)O[C@@H]2CO)ccc1O
> 48 h
